Let's go through some EC50 measurements on Adenosine receptor A2a (Rattus norvegicus, UniProt P30543) together.
Sequence (P30543 whole entry): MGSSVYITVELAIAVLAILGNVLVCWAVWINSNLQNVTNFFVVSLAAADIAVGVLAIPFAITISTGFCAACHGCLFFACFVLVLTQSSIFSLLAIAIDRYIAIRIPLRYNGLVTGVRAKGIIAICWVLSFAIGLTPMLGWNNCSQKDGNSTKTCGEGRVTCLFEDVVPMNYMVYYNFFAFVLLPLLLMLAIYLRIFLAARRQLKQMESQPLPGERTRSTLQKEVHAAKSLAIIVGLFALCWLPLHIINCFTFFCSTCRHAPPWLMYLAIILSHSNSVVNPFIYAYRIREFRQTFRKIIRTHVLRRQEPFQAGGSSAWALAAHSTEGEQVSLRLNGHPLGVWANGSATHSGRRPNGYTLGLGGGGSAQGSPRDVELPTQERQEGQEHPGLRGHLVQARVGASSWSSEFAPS
assayReadout: EC50 (nM)

{"columns": ["compound", "assayReadout", "unitSpec", "resultValue"],
 "data": [
  ["CCn1nnc([C@H]2O[C@@H](n3cnc4c(N)nc(N[C@H](C)Cc5ccc(OC)cc5)nc43)[C@H](O)[C@@H]2O)n1", "EC50", "nM", 4],
  ["CCn1nnc([C@H]2O[C@@H](n3cnc4c(N)nc(N[C@H](CO)Cc5ccc(Br)cc5)nc43)[C@H](O)[C@@H]2O)n1", "EC50", "nM", 6.7],
  ["CCn1nnc([C@H]2O[C@@H](n3cnc4c(N)nc(N[C@H](CO)Cc5ccc(O)cc5)nc43)[C@H](O)[C@@H]2O)n1", "EC50", "nM", 2.9],
  ["CCn1nnc([C@H]2O[C@@H](n3cnc4c(N)nc(N[C@H](CO)Cc5ccccc5)nc43)[C@H](O)[C@@H]2O)n1 [GW-328267]", "EC50", "nM", 10]
]}
